Biological target: T1, transferrin (human, UniProt P02787 20-698)
T1 construct: also called TRF; pooled human transferrin (Sigma)
T1 sequence (P02787 20-698 limits assumed): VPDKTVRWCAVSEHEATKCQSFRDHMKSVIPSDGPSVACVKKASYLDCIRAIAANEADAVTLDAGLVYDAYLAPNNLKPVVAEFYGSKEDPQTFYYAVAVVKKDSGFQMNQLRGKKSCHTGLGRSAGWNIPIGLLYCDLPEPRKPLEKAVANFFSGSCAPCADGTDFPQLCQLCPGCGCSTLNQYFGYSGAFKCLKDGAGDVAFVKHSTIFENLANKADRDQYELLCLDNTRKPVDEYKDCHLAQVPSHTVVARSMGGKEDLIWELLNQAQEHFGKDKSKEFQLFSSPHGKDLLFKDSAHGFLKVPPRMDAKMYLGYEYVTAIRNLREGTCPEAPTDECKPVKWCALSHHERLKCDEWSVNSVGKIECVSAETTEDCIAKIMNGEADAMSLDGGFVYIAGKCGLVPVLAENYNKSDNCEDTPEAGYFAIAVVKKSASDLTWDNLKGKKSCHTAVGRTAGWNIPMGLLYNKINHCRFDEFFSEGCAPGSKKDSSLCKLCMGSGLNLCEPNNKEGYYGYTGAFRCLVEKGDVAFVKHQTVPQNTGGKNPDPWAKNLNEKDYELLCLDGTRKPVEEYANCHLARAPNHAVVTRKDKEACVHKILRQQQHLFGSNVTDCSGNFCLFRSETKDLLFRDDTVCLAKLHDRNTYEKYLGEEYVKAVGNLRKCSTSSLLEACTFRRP
Test: SPR (Biacore T100), transferrin immobilised, steady-state response
Reported Kd values for a set of binders

Previously resolved entries follow.
QYHHFMNLKRQGRAQAYGSC (20-mer ending GSC) [TRF21] | ~60 µM
APYAPQQIHYWSTLGFKGSC (20-mer ending GSC) [TRF25] | ~60 µM
AHKVVPQRQIRHAYNRYGSC (20-mer ending GSC; also called TRF26 Lead Peptide) [TRF26] | ~100 µM

Asked: Give the measured Kd of KEDNPGYSSEQDYNKLDGSC (20-mer ending GSC; on arrays attached by the C-terminal Cys) [TRF19] .
Given back: ~150 µM

Asked: Please do the same for SVKPWRPLITGNRWLNSGSC (20-mer ending GSC) [TRF24] as well.
Given back: ~50 µM

Asked: Please do the same for FRGWAHIFFGPHVIYRGGSC (20-mer ending GSC) [TRF23] as well.
Given back: ~50 µM
